The reported numbers originate from patent US6403600B1.

assay: logP determination by HPLC (EEC-Directive 79/831 Annex V. A8); format: physicochemical; conditions: gradient method, acetonitrile/0.1% aqueous phosphoric acid
MEASURED_ATTRIBUTE: logP

compound="CON=C(C(=O)N(C)Sc1ccccc1)c1ccccc1COc1ccccc1C [Example 21]" measured_attribute=logP measured_value=5.11
compound="CON=C(C(=O)N(C)SC(F)(Cl)Cl)c1ccccc1Oc1ncnc(Oc2cccc(C)c2[N+](=O)[O-])c1F [Example 113]" measured_attribute=logP measured_value=4.71
compound="CON=C(C(=O)N(C)SC(F)(Cl)Cl)c1ccccc1Oc1ncnc(OC)c1F [Example 145]" measured_attribute=logP measured_value=5.45
compound="CON=C(C(=O)N(C)Sc1ccc(OC)cc1)c1ccccc1Oc1ccccc1 [Example 48]" measured_attribute=logP measured_value=4.31
compound="CON=C(C(=O)N(C)Sc1cccc(C(F)(F)F)c1)c1ccccc1CON=C(C)c1cccc(C(F)(F)F)c1 [Example 74]" measured_attribute=logP measured_value=5.84
compound="CCOC(=O)N(SC(F)(Cl)Cl)C(=O)C(=NOC)c1ccccc1COc1ccccc1C [Example 30]" measured_attribute=logP measured_value=5.35
compound="CON=C(C(=O)N(C)SC(F)(Cl)Cl)c1ccccc1Oc1ncnc(Oc2cc(Cl)cc(Cl)c2)c1F [Example 103]" measured_attribute=logP measured_value=5.71
compound="CON=C(C(=O)N(C)Sc1ccc(C(=O)OC)cc1)c1ccccc1COc1ccccc1C [Example 13]" measured_attribute=logP measured_value=4.89
compound="CON=C(C(=O)N(C)SC(C)(F)F)c1ccccc1COc1ccccc1C [Example 57]" measured_attribute=logP measured_value=4.62
compound="CON=C(C(=O)N(C)SC(F)(F)F)c1ccccc1CON=C(C)c1cccc(F)c1 [Example 84]" measured_attribute=logP measured_value=4.97
compound="CON=C(C(=O)N(C)SC(F)(Cl)Cl)c1ccccc1OC(=O)c1c(F)cccc1F [Example 144]" measured_attribute=logP measured_value=4.41
compound="CON=C(C(=O)N(C)Sc1ccccc1)c1ccccc1CON=C(C)c1cccc(C(F)(F)F)c1 [Example 72]" measured_attribute=logP measured_value=5.48
compound="CON=C(C(=O)N(C)SC(F)(Cl)Cl)c1ccccc1Oc1ncnc(Oc2cccc(Cl)c2Cl)c1F [Example 91]" measured_attribute=logP measured_value=5.46
compound="CON=C(C(=O)N(C)SC(F)(F)F)c1ccccc1CON=C(C)c1cccc(C(F)(F)F)c1 [Example 75]" measured_attribute=logP measured_value=5.36
compound="CON=C(C(=O)N(C)SC(F)(Cl)Cl)c1ccccc1Oc1ncnc(Oc2ccc(OC)cc2)c1F [Example 108]" measured_attribute=logP measured_value=4.63
compound="CCN(SC(F)(F)F)C(=O)C(=NOC)c1ccccc1COc1ccccc1C [Example 62]" measured_attribute=logP measured_value=5.3
compound="CON=C(C(=O)N(C)Sc1ccc(OC(F)(F)F)c(Cl)c1)c1ccccc1COc1ccccc1C [Example 23]" measured_attribute=logP measured_value=5.99
compound="CON=C(C(=O)N(C)SC(F)(F)F)c1ccccc1COc1cccc(-c2ccccc2)c1 [Example 66]" measured_attribute=logP measured_value=5.36
compound="CON=C(C(=O)N(C)SC(F)(Cl)Cl)c1ccccc1Oc1ncnc(Oc2cccc(C=O)c2Cl)c1F [Example 87]" measured_attribute=logP measured_value=4.72
compound="CON=C(C(=O)N(C)SC(F)(Cl)Cl)c1ccccc1Oc1ncnc(Oc2ccc(OC(F)(F)F)cc2Cl)c1F [Example 99]" measured_attribute=logP measured_value=5.08
compound="CON=C(C(=O)NSC(F)(Cl)Cl)c1ccccc1COc1ccccc1C [Example 28]" measured_attribute=logP measured_value=4.32
compound="CON=C(C(=O)N(C)SC(F)(Cl)Cl)c1ccccc1Oc1ncnc(Oc2ccccc2F)c1F [Example 105]" measured_attribute=logP measured_value=4.73
compound="CON=C(C(=O)N(C)SC(F)(Cl)Cl)c1ccccc1Oc1ncnc(Oc2cc(Cl)ccc2C)c1F [Example 125]" measured_attribute=logP measured_value=5.46
compound="CCN(SC(F)(Cl)Cl)C(=O)C(=NOC)c1ccccc1COc1ccccc1C [Example 53]" measured_attribute=logP measured_value=5.74
compound="CON=C(C(=O)N(C)SC(F)(Cl)Cl)c1ccccc1Oc1ncnc(Oc2ccc(OC(F)(F)F)cc2)c1F [Example 133]" measured_attribute=logP measured_value=5.3
